Tested on: hairless mice
Assay: Inhibiting the generation of wrinkles in hairless mice (simulated sunlight)
Assay type: in vivo
Conditions: 10^-3 M; 10 per group
Where a name gives a salt, the structure may show the parent alone.
Each entry below carries its reported Inhibition of wrinkles, Score 1 (slight).

{"compound": "O=C1NC(=O)C(c2ccccc2)(c2ccccc2)N1", "Inhibition of wrinkles, Score 1 (slight)": "0 number of mice"}
{"compound": "COc1ccc(CCN(C)CCCC(C#N)(c2ccc(OC)c(OC)c2)C(C)C)cc1OC (stereo not drawn) [Verapamil HCl]", "Inhibition of wrinkles, Score 1 (slight)": "0 number of mice"}
{"compound": "COc1ccc([C@@H]2Sc3ccccc3N(CCN(C)C)C(=O)[C@@H]2OC(C)=O)cc1", "Inhibition of wrinkles, Score 1 (slight)": "1 number of mice"}
{"compound": "CCCC(CCC)C(=O)O", "Inhibition of wrinkles, Score 1 (slight)": "0 number of mice"}
{"compound": "COC(=O)C1=C(C)NC(C)=C(C(=O)OC)C1c1ccccc1[N+](=O)[O-]", "Inhibition of wrinkles, Score 1 (slight)": "2 number of mice"}
{"compound": "CCOC(=O)C1=C(COCCN)NC(C)=C(C(=O)OC)C1c1ccccc1Cl (stereo not drawn)", "Inhibition of wrinkles, Score 1 (slight)": "0 number of mice"}

---

# Inhibition of wrinkles, Score 3 (high) values compiled below
Test system: hairless mice
Test: Inhibiting the generation of wrinkles in hairless mice (simulated sunlight)
Assay type: in vivo
Conditions: 10^-8 M; 10 per group
Structures can show the parent of a compound that is named as a salt.

{"compound": "COc1ccc([C@@H]2Sc3ccccc3N(CCN(C)C)C(=O)[C@@H]2OC(C)=O)cc1 [Diltiazem]", "Inhibition of wrinkles, Score 3 (high)": "6 number of mice"}
{"compound": "COc1ccc(CCN(C)CCCC(C#N)(c2ccc(OC)c(OC)c2)C(C)C)cc1OC (stereo not drawn) [Verapamil HCl]", "Inhibition of wrinkles, Score 3 (high)": "8 number of mice"}
{"compound": "COC(=O)C1=C(C)NC(C)=C(C(=O)OC)C1c1ccccc1[N+](=O)[O-] [Nifedipine]", "Inhibition of wrinkles, Score 3 (high)": "5 number of mice"}
{"compound": "O=C1NC(=O)C(c2ccccc2)(c2ccccc2)N1 [Phenytoin]", "Inhibition of wrinkles, Score 3 (high)": "8 number of mice"}
{"compound": "CCCC(CCC)C(=O)O [Valproic acid]", "Inhibition of wrinkles, Score 3 (high)": "8 number of mice"}
{"compound": "CCOC(=O)C1=C(COCCN)NC(C)=C(C(=O)OC)C1c1ccccc1Cl (stereo not drawn) [Amoldipine]", "Inhibition of wrinkles, Score 3 (high)": "8 number of mice"}

---

Effect of promoting collagen production in animal skin (hydroxyproline value vs control) by entry:
Tested on: rat skin
Assay: Promotion of collagen production in rat skin (hydroxyproline in implanted PVA sponge)
Type: in vivo, SD rats
Conditions: 10^-5 M, 200 μl every day for 10 days; control = 100%
Structures can show the parent of a compound that is named as a salt.
endpoint: Effect of promoting collagen production in animal skin (hydroxyproline value vs control) (%)

{"compound": "CCOC(=O)C1=C(COCCN)NC(C)=C(C(=O)OC)C1c1ccccc1Cl (centres unmarked)", "measured_number": 181.12}
{"compound": "COc1ccc(CCN(C)CCCC(C#N)(c2ccc(OC)c(OC)c2)C(C)C)cc1OC (centres unmarked) [Verapamil HCl]", "measured_number": 183.32}
{"compound": "COc1ccc([C@@H]2Sc3ccccc3N(CCN(C)C)C(=O)[C@@H]2OC(C)=O)cc1", "measured_number": 175.23}
{"compound": "O=C1NC(=O)C(c2ccccc2)(c2ccccc2)N1", "measured_number": 182.47}
{"compound": "CCCC(CCC)C(=O)O", "measured_number": 178.13}

---

Test system: hairless mice
Test: Inhibiting the generation of wrinkles in hairless mice (simulated sunlight)
Type: in vivo
Conditions: 10^-8 M; 10 per group
Structures can show the parent of a compound that is named as a salt.
endpoint: Inhibition of wrinkles, Score 1 (slight)

{"compound": "COC(=O)C1=C(C)NC(C)=C(C(=O)OC)C1c1ccccc1[N+](=O)[O-]", "result": "2 number of mice"}
{"compound": "CCOC(=O)C1=C(COCCN)NC(C)=C(C(=O)OC)C1c1ccccc1Cl (stereo not drawn)", "result": "1 number of mice"}
{"compound": "COc1ccc(CCN(C)CCCC(C#N)(c2ccc(OC)c(OC)c2)C(C)C)cc1OC (stereo not drawn) [Verapamil HCl]", "result": "1 number of mice"}
{"compound": "COc1ccc([C@@H]2Sc3ccccc3N(CCN(C)C)C(=O)[C@@H]2OC(C)=O)cc1", "result": "2 number of mice"}
{"compound": "O=C1NC(=O)C(c2ccccc2)(c2ccccc2)N1", "result": "0 number of mice"}
{"compound": "CCCC(CCC)C(=O)O", "result": "1 number of mice"}

---

System: hairless mice
Assay: Alleviating photo-induced wrinkles in hairless mice
Assay type: in vivo
Conditions: 10^-3 M; twice a day for 6 weeks; 10 per group
Structures can show the parent of a compound that is named as a salt.
Measured Reduction of wrinkles, Score 1 (slight) values are reported for all entries that follow.
endpoint: Reduction of wrinkles, Score 1 (slight)

{"molecule": "O=C1NC(=O)C(c2ccccc2)(c2ccccc2)N1", "result": "0 number of mice"}
{"molecule": "COc1ccc(CCN(C)CCCC(C#N)(c2ccc(OC)c(OC)c2)C(C)C)cc1OC (stereo not drawn) [Verapamil HCl]", "result": "1 number of mice"}
{"molecule": "COC(=O)C1=C(C)NC(C)=C(C(=O)OC)C1c1ccccc1[N+](=O)[O-]", "result": "2 number of mice"}
{"molecule": "COc1ccc([C@@H]2Sc3ccccc3N(CCN(C)C)C(=O)[C@@H]2OC(C)=O)cc1", "result": "0 number of mice"}
{"molecule": "CCOC(=O)C1=C(COCCN)NC(C)=C(C(=O)OC)C1c1ccccc1Cl (stereo not drawn)", "result": "1 number of mice"}
{"molecule": "CCCC(CCC)C(=O)O", "result": "0 number of mice"}

---

Tested on: hairless mice
Assay: Alleviating photo-induced wrinkles in hairless mice
Format: in vivo
Conditions: 10^-8 M; twice a day for 6 weeks; 10 per group
Where a name gives a salt, the structure may show the parent alone.
Entries and their Reduction of wrinkles, Score 3 (high) values follow.

{"compound": "O=C1NC(=O)C(c2ccccc2)(c2ccccc2)N1 [Phenytoin]", "Reduction of wrinkles, Score 3 (high)": "7 number of mice"}
{"compound": "COc1ccc(CCN(C)CCCC(C#N)(c2ccc(OC)c(OC)c2)C(C)C)cc1OC (stereo not drawn) [Verapamil HCl]", "Reduction of wrinkles, Score 3 (high)": "6 number of mice"}
{"compound": "CCCC(CCC)C(=O)O [Valproic acid]", "Reduction of wrinkles, Score 3 (high)": "7 number of mice"}
{"compound": "COc1ccc([C@@H]2Sc3ccccc3N(CCN(C)C)C(=O)[C@@H]2OC(C)=O)cc1 [Diltiazem]", "Reduction of wrinkles, Score 3 (high)": "7 number of mice"}
{"compound": "CCOC(=O)C1=C(COCCN)NC(C)=C(C(=O)OC)C1c1ccccc1Cl (stereo not drawn) [Amoldipine]", "Reduction of wrinkles, Score 3 (high)": "8 number of mice"}
{"compound": "COC(=O)C1=C(C)NC(C)=C(C(=O)OC)C1c1ccccc1[N+](=O)[O-] [Nifedipine]", "Reduction of wrinkles, Score 3 (high)": "5 number of mice"}

---

System: fibroblasts derived from a human
Assay: Promoting collagen production in fibroblasts (3H-proline incorporation into collagenase-sensitive protein)
Type: cell-based
Conditions: 10^-7 M; control = 100%
Structures can show the parent of a compound that is named as a salt.
In this section we review reported Effect of promoting collagen production in fibroblasts (rate of collagen production) values for a set of compounds.
endpoint: Effect of promoting collagen production in fibroblasts (rate of collagen production) (%)

{"compound": "O=C1NC(=O)C(c2ccccc2)(c2ccccc2)N1", "tested_on": "fibroblasts derived from a human", "measured_number": 298.35}
{"compound": "COc1ccc(CCN(C)CCCC(C#N)(c2ccc(OC)c(OC)c2)C(C)C)cc1OC (stereo not drawn) [Verapamil HCl]", "tested_on": "fibroblasts derived from a human", "measured_number": 280.23}
{"compound": "COC(=O)C1=C(C)NC(C)=C(C(=O)OC)C1c1ccccc1[N+](=O)[O-]", "tested_on": "fibroblasts derived from a human", "measured_number": 292.21}
{"compound": "CCOC(=O)C1=C(COCCN)NC(C)=C(C(=O)OC)C1c1ccccc1Cl (stereo not drawn)", "tested_on": "fibroblasts derived from a human", "measured_number": 280.07}
{"compound": "CCCC(CCC)C(=O)O", "tested_on": "fibroblasts derived from a human", "measured_number": 283.24}
{"compound": "COc1ccc([C@@H]2Sc3ccccc3N(CCN(C)C)C(=O)[C@@H]2OC(C)=O)cc1", "tested_on": "fibroblasts derived from a human", "measured_number": 276.25}
